Where do the numbers come from? From patent US4677968A.

Experiment: In vivo topical application of caffeine in the flap system of Example 1
Details: rat, topical or ocular; in vivo, topical application; read-out: time of peak levels of caffeine
measured-endpoint: Tmax

Query block: Consider the compound shown here: `Cn1c(=O)c2c(ncn2C)n(C)c1=O` What is its recorded Tmax?
Result block: ≤ 30 min

---

Assay: Role of blood flow on percutaneous absorption (iontophoresis of phenylephrine), rat/rat flap
Type: in vivo
Settings: rat, in vivo, topical or ocular, decreased microcirculation (iontophoresis of phenylephrine); read-out: time of peak benzoic acid levels in flap blood (converted)
measured-endpoint: Tmax

Query block: Query (molecule): `O=C(O)c1ccccc1` ; field requested: Tmax
Result block: ~2.33 h
